For each record, write down the corresponding activity in [%].
System: Spider Mite (Tetranychus spp.)
Experiment: Spider mite contact/oral activity on potted cotton plants
Format: in vivo
Settings: Spider mite, 300 ppm; scale 0% no biological activity to 100% total control

What measured activity in [%] is associated with CC(Nc1ncnc2scc(Cl)c12)c1ccc(SC(F)(F)F)cc1 (stereo not shown) [C.3] on Spider Mite (Tetranychus spp.)?
90%

What measured activity in [%] is associated with C[C@@H](Nc1ncnc2scc(Cl)c12)c1ccc(SC(F)(F)F)cc1 [C.3-R] on Spider Mite (Tetranychus spp.)?
0%

What measured activity in [%] is associated with C[C@H](Nc1ncnc2scc(Cl)c12)c1ccc(SC(F)(F)F)cc1 [C.3-S] on Spider Mite (Tetranychus spp.)?
90%

What measured activity in [%] is associated with C[C@H](Nc1ncnc2scc(Cl)c12)c1ccc(OC(F)(F)F)cc1 [CE.2, reference compound] on Spider Mite (Tetranychus spp.)?
50%
